# Tested on: HCT-116
# Protocol Summary: NCI tumour cell line growth inhibition, 48 h
Activity calls are given as the source filed them. No stated cut-off is given here; in the data, active = GI50 up to about 1.1 µM and inactive = higher.
Parameter call: string, one of 1 (yes) = active, 0 (no) = inactive

Sample answers from the record:
# Compound, Classification
measured = [
    ("CN(C)CCCNc1ccc2ncn3c4ccc(O)cc4c(=O)c1c23", "1 (yes)"),
    ("CN(C)CCCC1c2ccccc2Oc2ccc(C(F)(F)F)cc21 (stereo unspecified)", "0 (no)"),
    ("Cc1cc2c(cc1Cl)SC(NNC(=O)c1ccco1)=NS2(=O)=O", "0 (no)"),
    ("CN(C)/C=N/c1ccc2nonc2c1", "0 (no)"),
    ("COc1ccc2nc3cc(Cl)ccc3c(NC(C)CCCN(CCCl)CCCl)c2c1 (stereo unspecified)", "1 (yes)"),
]

// query Dear all, I need the recorded test outcome for COC(=O)c1ccccc1C1CN=NC12Cc1ccc3c(c1C2=O)CCC3 (stereo unspecified) , thank you.
// result 0 (no)

* * *

# Test system: 786-0
# Protocol Summary: NCI tumour cell line growth inhibition, 48 h
The source made the active and inactive calls. No stated cut-off is given here; in the data, active = GI50 up to about 1.1 µM and inactive = higher.
Property Measured: GI50

# Compound, GI50
rows = [
    ("COc1ccccc1-c1c(C#N)c(N)[nH]c(=S)c1C#N", "50.7 µM (inactive)"),
]

Continue with the compound presented below.
// query Which value of GI50 has been reported for Cc1cn(CCCCCCOC(=O)NC(CCCNC(=N)N)C(=O)O)c(=O)[nH]c1=O (stereo not drawn) in the records?
// result > 100 µM (inactive)

* * *

# Tested on: NCI/ADR-RES
# Protocol Summary: NCI tumour cell line growth inhibition, 48 h
Active and inactive are the calls of the source. Cut-off read from the data, not from the text of the source: active = GI50 up to about 1.1 µM and inactive = higher.
The following compounds are shown together with reported GI50 values.

# Compound, Target Or System, Reported Value
measured = [
    ("CCCCCC(O)C1C(=O)OC(C)C(O)/C=C/C=C/C=C/C=C\\C=C(\\C)C(O)CC(O)CC(O)CC(O)CC(O)CC(O)CC1O (stereo not given)", "NCI/ADR-RES", "> 50 µM (inactive)"),
    ("CN(C)CCNC(=O)c1ccc(NC(=O)c2nc([N+](=O)[O-])cn2C)cc1", "NCI/ADR-RES", "> 100 µM (inactive)"),
    ("COc1ccc(C2OCCN2C)cc1 (stereo not given)", "NCI/ADR-RES", "> 100 µM (inactive)"),
    ("C(/C=N/c1ccccc1)=C(/Nc1ccccc1)c1ccc2ccccc2c1", "NCI/ADR-RES", "1.5 µM (inactive)"),
]

Now let's try a different one.
// query Return reported GI50; argument: `CC(C)C[C@H](NC(=O)[C@H](Cc1ccccc1)NC(=O)CCc1ccccc1)B(O)O`
// result 0.011 µM (active)

* * *

# System: SW-620
# Protocol Summary: NCI tumour cell line growth inhibition, 48 h
The source made the active and inactive calls. Rule as the data show it: active = GI50 up to about 1.1 µM and inactive = higher.
Property Measured: GI50

Example compounds with recorded GI50:
# Compound, GI50
data = [
    ("COc1cc2oc(=O)cc(C)c2cc1[N+](=O)[O-]", "23 µM (inactive)"),
    ("O=C1C(=c2cc3c(c4ccccc24)=NC24CCCCC2C(c2ccccc2)C=C(c2ccccc2)N34)C(=O)c2ccccc21 (stereo unspecified)", "37.7 µM (inactive)"),
    ("C[C@@H]1OC(=O)/C(=C\\N(C)C)[C@H]2CC(=O)N(CCc3cn(S(=O)(=O)C(F)(F)F)c4ccccc34)C[C@H]12", "> 100 µM (inactive)"),
]

// next item, GI50 requested
// query Test system SW-620; read-out GI50; what value for `Brc1ccc(-c2cc(-c3ccc4c(c3)OCO4)c(-c3cccs3)n2Cc2ccccc2)cc1` ?
// result > 100 µM (inactive)

* * *

# Tested on: ACHN
# Protocol Summary: NCI tumour cell line growth inhibition, 48 h
The source made the active and inactive calls. Cut-off read from the data, not from the text of the source: active = GI50 up to about 1.1 µM and inactive = higher.
Property Measured: GI50

Some entries whose results are on file:
# Molecule, Target Or System, GI50
rows = [
    ("COc1ccccc1-c1c(C#N)c(N)[nH]c(=S)c1C#N", "ACHN", "> 100 µM (inactive)"),
    ("O=C(NCCc1ccccc1)C1C(=O)C(=O)N(CCc2ccccc2)C1=O (stereo not given)", "ACHN", "> 100 µM (inactive)"),
]

// query Query (molecule): CC(O)C1(CNc2cc(Cl)nc(N)n2)CCCCC1 (stereo not given) ; field requested: GI50
// result > 100 µM (inactive)

// query Any idea what GI50 was measured for CCCCCCCCCCCCNC(=O)CCC(NC(=O)c1ccc(N(C)Cc2cnc3nc(N)nc(N)c3n2)cc1)C(=O)NCCCCCCCCCCCC (stereo not given) ?
// result > 100 µM (inactive)

// query GI50 for COc1cccc(NC(=O)CC(=O)N2N=C(N(CCC#N)c3ccccc3C)CC2c2ccccc2)c1 (stereo not given) ?
// result > 100 µM (inactive)

* * *

# Tested on: ACHN
# Protocol Summary: NCI tumour cell line growth inhibition, 48 h
The source made the active and inactive calls. Rule as the data show it: active = GI50 up to about 1.1 µM and inactive = higher.
Property Measured: GI50

Field: example entries. Status: answers known.
# Compound, Reported Value
rows = [
    ("CCCc1ccc(NCc2cc(OC)c(OC)c(OC)c2)cc1", "30.6 µM (inactive)"),
    ("CCn1c(SCc2nnc(Nc3ccccc3)s2)nc2ccccc2c1=O", "2.85 µM (inactive)"),
    ("CC1=C/C(=N\\NC(N)=S)C(C(O)(C(F)(F)F)C(F)(F)F)C(C)(C)C1 (stereo not given)", "> 10 µM (inactive)"),
    ("CC1(C)CC(=O)c2c(nc3c(ccc4ccccc43)c2-c2ccc(NC(=O)CCCCCCCCC(=O)Nc3ccc(-c4c5c(nc6c4ccc4ccccc46)CC(C)(C)CC5=O)cc3)cc2)C1", "> 100 µM (inactive)"),
]

// query For the compound shown here, `CC(=O)c1sc2[n+](c1C)C(=O)/C(=C\c1ccccc1Cl)S2` , give the reported GI50.
// result 20.5 µM (inactive)

* * *

# Test system: PC-3
# Protocol Summary: NCI tumour cell line growth inhibition, 48 h
The source made the active and inactive calls. No stated cut-off is given here; in the data, active = GI50 up to about 1.1 µM and inactive = higher.
Reported GI50 values are given for each entry in this list.

Consider the worked cases shown below.
# Compound, Property Measured, Reported Value
data = [
    ("CC(O)C1(CNc2cc(Cl)nc(N)n2)CCCCC1 (stereo not given)", "GI50", "65.6 µM (inactive)"),
    ("O=C(c1cc(Cl)cc(Cl)c1)N(C(=O)N1CCN(c2ccccc2)CC1)c1ccccc1", "GI50", "25.1 µM (inactive)"),
    ("COc1ccc2c(c1)CC[C@@H]1[C@@H]2CC[C@]2(C)C(=O)/C(=C/c3cc(OC)c(OC)c(OC)c3)C[C@@H]12", "GI50", "14 µM (inactive)"),
    ("Cc1ccc(SC[C@@]2(C(F)F)NC(=O)NC2=O)cc1", "GI50", "> 100 µM (inactive)"),
]

// query I would be grateful if you could share the reported GI50 for `C=CCn1c(-c2ccc(Cl)cc2)cs/c1=N\c1ccccc1OC` .
// result 32.7 µM (inactive)

* * *

# System: UACC-62
# Protocol Summary: NCI tumour cell line growth inhibition, 48 h
Calls of active or inactive are those of the source. Cut-off read from the data, not from the text of the source: active = GI50 up to about 1.1 µM and inactive = higher.
Property Measured: GI50

// query Returns the measured GI50 for the input compound. Input: `N#Cc1c(Nc2ccccc2)[n+]([O-])c2ccc(Cl)cc2[n+]1[O-]`
// result 3.71 µM (inactive)

// query Which GI50 value belongs to CCO[C@@H]1CCC([S+]([O-])c2ccc(C)cc2)=CO1 (stereo partly specified) ?
// result > 100 µM (inactive)

* * *

# System: LOX IMVI
# Protocol Summary: NCI tumour cell line growth inhibition, 48 h
Calls of active or inactive are those of the source. Rule as the data show it: active = GI50 up to about 1.1 µM and inactive = higher.
Outcome field: choose from active, inactive

Illustrative cases are given below, each with its answer.
# Compound, Classification
data = [
    ("Cc1nc(C)c(N2CCN(C(=O)NC(CCC(=O)O)C(=O)O)CC2)c(O)n1 (stereo unspecified)", "inactive"),
    ("C/C(=C\\CO)CC[C@@H]1[C@@]2(C)CCCC(C)(C)[C@@H]2CC[C@@]1(C)O", "inactive"),
    ("Cc1ccc(SC[C@@]2(C(F)F)NC(=O)NC2=O)cc1", "inactive"),
    ("COc1ccc(CNC(=O)NCn2cc(-c3ccccc3)nn2)cc1", "inactive"),
    ("CN(C)Cc1cc(C(C)(C)C)cc(CNC2CCCCC2)c1O", "inactive"),
]

Now consider a different compound.
// query Outcome? `Cc1cccc(-c2cc(O)c3cc(C)cnc3n2)c1`
// result active

* * *

# Test system: CCRF-CEM
# Protocol Summary: NCI tumour cell line growth inhibition, 48 h
Calls of active or inactive are those of the source. Rule as the data show it: active = GI50 up to about 1.1 µM and inactive = higher.
Property Measured: GI50

# Compound, Property Measured, Reported Value
rows = [
    ("CC(=O)OCC1OC(n2c(C#N)cc(=O)[nH]c2=O)CC1OC(C)=O (stereo unspecified)", "GI50", "> 100 µM (inactive)"),
    ("NC1=Nc2cc(Cl)ccc2Sc2nc3ccccc3n21", "GI50", "1.22 µM (inactive)"),
    ("OCc1cc2c(ccc3sc4ccc5sc6ccc7ncccc7c6c5c4c32)s1", "GI50", "19.7 µM (inactive)"),
    ("Cc1nc2ccccn2c1/N=N/c1ccc(C(=O)NN)cc1", "GI50", "4.59 µM (inactive)"),
    ("CCc1nnc(S)n1/N=C\\c1ccc(-c2ccccc2Cl)o1", "GI50", "27.5 µM (inactive)"),
]

Next compound, GI50 to be filled in.
// query Value lookup for GI50; key = `NNC(=O)CSc1nc2ccc(I)cc2c(=O)n1Cc1ccccc1`
// result 3.89 µM (inactive)

Taken from ChEMBL document CHEMBL1201862.
